Origin of values: the supplement of paper PMC6757056

B1: library; a variant is named by its letters at N, in order (parent)
chain: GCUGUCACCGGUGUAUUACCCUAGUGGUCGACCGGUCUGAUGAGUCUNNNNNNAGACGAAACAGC

- Variants of: B1
- protocolNotes: normalized RNA/DNA level with ligand (relative to sTRSVctl = 100) (log10 (% of sTRSVctl)); ligand: hypoxanthine (xanthine aptamer); higher = less ribozyme self-cleavage, higher mRNA level
- assayConditions: ligand concentration (+) RNA-Seq: 5 mM, HEK293T, reporter: mCherry (pCS4076), ligand present: yes
valueType: normalized RNA/DNA level with ligand (log10)
Number, no unit, nothing else.

Please review the entries below; each comes with its answer.
macromoleculesequence=GCUGUCACCGGUGUAUUACCCUAGUGGUCGACCGGUCUGAUGAGUCUGGGUCAAGACGAAACAGC val=1.99
macromoleculesequence=GCUGUCACCGGUGUAUUACCCUAGUGGUCGACCGGUCUGAUGAGUCUAGUAUAAGACGAAACAGC val=1.91

-- ask So what's the measured normalized RNA/DNA level with ligand (log10) for this one? GCUGUCACCGGUGUAUUACCCUAGUGGUCGACCGGUCUGAUGAGUCUCAAAUAAGACGAAACAGC
-- reply 1.9

-- ask Follow-up entry: GCUGUCACCGGUGUAUUACCCUAGUGGUCGACCGGUCUGAUGAGUCUCGGGUUAGACGAAACAGC
-- reply 1.99

-- ask Let us now turn to GCUGUCACCGGUGUAUUACCCUAGUGGUCGACCGGUCUGAUGAGUCUACCUUAAGACGAAACAGC
-- reply 1.94

-- ask Can you check GCUGUCACCGGUGUAUUACCCUAGUGGUCGACCGGUCUGAUGAGUCUAUCAUUAGACGAAACAGC next?
-- reply 1.96

-- ask Would you kindly repeat that for GCUGUCACCGGUGUAUUACCCUAGUGGUCGACCGGUCUGAUGAGUCUUCGCCAAGACGAAACAGC ?
-- reply 2.02

-- ask Would you mind doing GCUGUCACCGGUGUAUUACCCUAGUGGUCGACCGGUCUGAUGAGUCUUGUUCCAGACGAAACAGC as well?
-- reply 2.03
